These entries and their values trace back to PubChem BioAssay.

# assayOverview: RAM pathway blockade in budding yeast – dse1pr::URA3 reporter, 5-FOA selection, pilot screen (AID 869);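 also: 0% = DMSO wells with no growth and 100% = 10 µM 1-NA-PP1 with full growth; RAM network block rescues cells from 5-FOA so hits raise OD615 growth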
# cond: S. cerevisiae dse1pr::URA3 5-FOA growth, OD615, 2 d; at 10 µM; stronger effect = higher value; strain carries analog-sensitive mutant Cbk1 kinase
Would you kindly list inhibition for each of these compounds?
Field format: number, assumed %, no unit text.

### Prompt I have this compound here, `COc1cccc2c(=O)c3c(cnn3C)n(C)c12` , and I need its recorded inhibition.
### Response 1.5

### Prompt I have this compound here, CN(C)C(C(=O)NC1CCCCC1)c1ccc(Cl)cc1 (centres undefined) , and I need its recorded inhibition.
### Response 0.575

### Prompt I have this compound here, `O=C(Cn1cc2c(n1)CCCC2)NCCCN1CCN(C2CCCCC2)CC1` , and I need its recorded inhibition.
### Response 1.92

### Prompt I have this compound here, COCCn1c(SCC(=O)N2CCN(c3ccccc3)CC2)nc2c(c1=O)SC(C)C2 (centres undefined) , and I need its recorded inhibition.
### Response 1.65

---

Would you kindly list viability for each of these compounds?
# assayOverview: viability of PTEN-null HCT116 cells – cell-based, HCT116 clonal line, CellTiter-Glo, pilot screen (AID 824);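 also: 0% = 20 µM Hyamine control and 100% = vehicle cell control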
# cond: HCT116 PTEN-deleted viability, 60 h, at 10 µM, stronger effect = lower value
Results filed as inconclusive are left out.
Field format: number, assumed %, no unit text.

### Prompt I have this compound here, `CCOc1ccc(-c2nnc3n2N=C(c2ccc(OC)cc2)CS3)cc1` , and I need its recorded viability.
### Response 82

### Prompt I have this compound here, `CC(=O)C1=C(N2CCCCC2)CCC1=O` , and I need its recorded viability.
### Response 94.7

### Prompt I have this compound here, `CCCCN(C)C(=O)c1cn(C)c2ccc(S(=O)(=O)N(C)C)cc2c1=O` , and I need its recorded viability.
### Response 108

### Prompt I have this compound here, `CCOC(=O)c1cc2c(=O)n3ccccc3nc2n(CC(C)C)c1=NC(=O)c1ccco1` , and I need its recorded viability.
### Response 37.7

### Prompt I have this compound here, `Cn1c(=O)c2c(nc(CN3CCc4ccccc4C3)n2Cc2cccc(Cl)c2)n(C)c1=O` , and I need its recorded viability.
### Response 47.6

### Prompt I have this compound here, `CN(C)c1nc2ccc(OCCN3CCCCC3)cc2s1` , and I need its recorded viability.
### Response 94.3

### Prompt I have this compound here, CC1Cc2nc(SCC(=O)Nc3ccc4c(c3)OCO4)n(-c3ccc(F)cc3)c(=O)c2S1 (stereo unspecified) , and I need its recorded viability.
### Response 86.7

### Prompt I have this compound here, O=C1CC(c2ccccc2)CC(O)=C1C=NCCN1CCOCC1 (stereo unspecified) , and I need its recorded viability.
### Response 93.2

### Prompt I have this compound here, `Cc1cccc(NC(=O)Nc2cccc(C#N)c2)n1` , and I need its recorded viability.
### Response 46

### Prompt I have this compound here, `CCCCCCSc1cc(C)nc2ncnn12` , and I need its recorded viability.
### Response 83.2

### Prompt I have this compound here, Cc1ccc(C2CC(c3cccc(C)c3)n3ncnc3N2)cc1 (stereo unspecified) , and I need its recorded viability.
### Response 86.1

### Prompt I have this compound here, COc1ccc(S(=O)(=O)N2Cc3ccccc3CC2C(=O)Nc2ccc(O)cc2)cc1OC (stereo unspecified) , and I need its recorded viability.
### Response 87.5

### Prompt I have this compound here, `O=C(CN1CCOc2ccccc21)NCc1ccco1` , and I need its recorded viability.
### Response 82.9

### Prompt I have this compound here, CC1CCc2nc3ccc(S(=O)(=O)N4CCC(C(=O)NC5CCCC5)CC4)cc3c(C(=O)O)c2C1 (stereo unspecified) , and I need its recorded viability.
### Response 95.4

### Prompt I have this compound here, `O=C(COc1ccc2ccccc2c1)N1CCCC1` , and I need its recorded viability.
### Response 101

### Prompt I have this compound here, `CC(C)CCNC(=O)CCS(=O)(=O)c1cccc2nonc12` , and I need its recorded viability.
### Response 103

### Prompt I have this compound here, `COc1ccccc1CNC(=O)c1cnc2sccn2c1=O` , and I need its recorded viability.
### Response 90.3

### Prompt I have this compound here, `Cc1cc(C)nc(NC(=O)c2cnc3sccn3c2=O)n1` , and I need its recorded viability.
### Response 98.3

### Prompt I have this compound here, `COc1ccc(OCc2nnc3n2N=C(c2ccc(C)cc2)CS3)cc1` , and I need its recorded viability.
### Response 82.1

### Prompt I have this compound here, Cn1cc(C2NC(=O)c3c(sc4c3CCCC4)N2)c2ccccc21 (stereo unspecified) , and I need its recorded viability.
### Response 90.8

### Prompt I have this compound here, `Cc1ccc(C)c(NC(=O)CS(=O)(=O)c2cn(C)c3ccccc23)c1` , and I need its recorded viability.
### Response 98.2

### Prompt I have this compound here, CC1CCc2nn(CC(=O)NCCC3=CCCCC3)cc2C1 (stereo unspecified) , and I need its recorded viability.
### Response 94.5

### Prompt I have this compound here, `COc1ccc(CCNC(=O)CSc2nnnn2-c2ccccc2OC)cc1OC` , and I need its recorded viability.
### Response 92.3

### Prompt I have this compound here, `Cn1c(C(=O)N2CCN(c3ccc(F)cc3)CC2)cc2c(=O)n(C)c3ccccc3c21` , and I need its recorded viability.
### Response 85

### Prompt I have this compound here, `CNC(=O)c1ccccc1NC(=O)c1c(O)c2c([nH]c1=O)CCCC2` , and I need its recorded viability.
### Response 94.5

### Prompt I have this compound here, `Cc1cc(C)nc(SCC(=O)OCN2C(=O)c3ccccc3C2=O)n1` , and I need its recorded viability.
### Response 91.6

### Prompt I have this compound here, `C=CCSc1nnc(-c2cccnc2)o1` , and I need its recorded viability.
### Response 101

### Prompt I have this compound here, `CC1(C)Cc2ccccc2C(N)=C1C#N` , and I need its recorded viability.
### Response 91.8

### Prompt I have this compound here, `O=C(CSc1nc2c(cnn2-c2ccc(F)cc2)c(=O)[nH]1)N1CCCCCC1` , and I need its recorded viability.
### Response 93

### Prompt I have this compound here, Cc1nnc(NC(=O)C(C)Sc2nncn2C)s1 (stereo unspecified) , and I need its recorded viability.
### Response 94.8

### Prompt I have this compound here, CC1C(=O)CC(c2ccccc2)N(C)C1c1ccccc1 (stereo unspecified) , and I need its recorded viability.
### Response 84.1

### Prompt I have this compound here, `Cc1ccccc1-n1c(Cn2c(=O)sc3ccccc32)nnc1SC(C)C` , and I need its recorded viability.
### Response 78.4

### Prompt I have this compound here, `COCCN(CCOC)c1ncnc2c1cnn2-c1ccccc1` , and I need its recorded viability.
### Response 98.5

### Prompt I have this compound here, `COc1ccc(N(CC(=O)O)S(=O)(=O)c2ccc(OC)c(OC)c2)cc1` , and I need its recorded viability.
### Response 99.1

### Prompt I have this compound here, O=C(Nc1ccccc1)C1=C(O)CC(c2ccoc2)CC1=Nc1ccccc1 (stereo unspecified) , and I need its recorded viability.
### Response 70.3

### Prompt I have this compound here, `Cc1nc2ccccc2c2oc(C(=O)NCCCN3CCCC3=O)cc12` , and I need its recorded viability.
### Response 96.8

### Prompt I have this compound here, `Fc1ccc(CN2CCCCCCC2)cc1F` , and I need its recorded viability.
### Response 95.7

### Prompt I have this compound here, COC1CCCCC1Nc1cccc(SC)c1 (stereo unspecified) , and I need its recorded viability.
### Response 75.1

### Prompt I have this compound here, `O=C(Nc1nc2ccccc2s1)c1ccc(Cl)s1` , and I need its recorded viability.
### Response 77

### Prompt I have this compound here, O=C(NC(Cc1ccc2c(c1)OCO2)C(=O)N1CCCC1C(=O)O)c1ccccc1 (stereo unspecified) , and I need its recorded viability.
### Response 98.1

### Prompt I have this compound here, O=C1C(=O)N(CCCn2ccnc2)C(c2cccnc2)/C1=C(/O)c1ccc(Cl)cc1 (stereo unspecified) , and I need its recorded viability.
### Response 98.6

---

Would you kindly list growth inhibition for each of these molecules?
# assayOverview: S. cerevisiae growth inhibition in restrictive medium, OD615, pilot screen, restrictive growth control, yeast lifespan reduction project (AID 706);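 also: modified DeaD lifespan yeast strain shifted to restrictive glucose medium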
# cond: OD615, 48 h, at 10 µM, stronger effect = higher value
The source made the active and inactive calls.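 The calls were made as follows: active = growth inhibition above a set limit, 3 SD over mean compound inhibition, in both replicates (cut at about 43% in these data); inconclusive = above the limit in only one replicate; inactive = at or below the limit in both replicates.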

### Prompt I have this molecule here, CC1CCc2nn(CC(=O)NCCN3CCOCC3)cc2C1 (stereo unspecified) , and I need its recorded growth inhibition.
### Response 6.26% (inactive)

### Prompt I have this molecule here, `COc1ccccc1N1CCN(C(=O)CCCn2c(=O)[nH]c3ccsc3c2=O)CC1` , and I need its recorded growth inhibition.
### Response 7.54% (inactive)

### Prompt I have this molecule here, `COc1ccc(-n2c(SCC(=O)Nc3ccc4c(c3)OCO4)nc3c(c2=O)SCC3)cc1` , and I need its recorded growth inhibition.
### Response -12.5% (inactive)

### Prompt I have this molecule here, CCc1ccc(C2CC(c3cccc(OC)c3)n3nc(N)nc3N2)cc1 (stereo unspecified) , and I need its recorded growth inhibition.
### Response 12% (inactive)

### Prompt I have this molecule here, `Cc1cc(NC(=O)CSc2cn(CCNC(=O)c3ccc(Cl)cc3)c3ccccc23)no1` , and I need its recorded growth inhibition.
### Response -1.28% (inactive)

### Prompt I have this molecule here, CCOc1ccc(-n2c(Cc3cc(=O)[nH]c(=O)[nH]3)nnc2SC(C)C(=O)OC)cc1 (stereo unspecified) , and I need its recorded growth inhibition.
### Response 2.84% (inactive)

### Prompt I have this molecule here, Cc1noc(/C=C/N(C)C)c1S(=O)(=O)N1CCCC(C(=O)N2CCc3ccccc32)C1 (stereo unspecified) , and I need its recorded growth inhibition.
### Response -0.63% (inactive)

### Prompt I have this molecule here, CC(CCc1ccco1)NC(=O)Cn1ncc2c1-c1ccccc1OC2 (stereo unspecified) , and I need its recorded growth inhibition.
### Response -19% (inactive)

### Prompt I have this molecule here, CCCNC(=O)CS(=O)Cc1nc(-c2cccc(OC)c2)oc1C (stereo unspecified) , and I need its recorded growth inhibition.
### Response -0.045% (inactive)

### Prompt I have this molecule here, `c1nc(NCC2(N3CCOCC3)CCCCC2)c2ccsc2n1` , and I need its recorded growth inhibition.
### Response 3.08% (inactive)

### Prompt I have this molecule here, `O=C1N=C(N2CCOCC2)SC1=C1CCCCC1` , and I need its recorded growth inhibition.
### Response -2.34% (inactive)

### Prompt I have this molecule here, `Cc1c(C)n(C(=O)CSc2nncn2C)c2ccccc12` , and I need its recorded growth inhibition.
### Response 12.8% (inactive)

### Prompt I have this molecule here, `CCOC(=O)N1CCC(N2C(=O)c3ccc(C(=O)Nc4ccc(F)cc4F)cc3C2=O)CC1` , and I need its recorded growth inhibition.
### Response -7.76% (inactive)

### Prompt I have this molecule here, CCOc1ccc(C2CC(c3cccc(C)c3)n3nc(N)nc3N2)cc1 (stereo unspecified) , and I need its recorded growth inhibition.
### Response 11.8% (inactive)

### Prompt I have this molecule here, `CN1C(=O)c2cccc(NC(=O)CCc3ccccc3)c2C1=O` , and I need its recorded growth inhibition.
### Response 1.67% (inactive)

### Prompt I have this molecule here, `Fc1ccccc1N1CCN(C2CCN(Cc3c[nH]c4ccccc34)CC2)CC1` , and I need its recorded growth inhibition.
### Response 2.13% (inactive)
